- ASSAY PROTOCOL: yeast display, Sf9 membrane polyspecificity reagent, FACS + sequencing; frameworks hold sequencing errors
MEASUREMENT TYPE: polyreactivity (PSR sort gate)

1. QVQLVESVGGLVQAGGSLRLSCAASGSIFVPYAMGWYRQAPGKEREFVAAIYSGGGNTYYADSVKGRFTISRDNAKNTVYLQMNSLIPEDTAVYYCAAAYFYSSWSRYDYWGQGTQVTVSS; high polyreactivity
2. QVQLVESGGGLVQAGGSLRLSCAASGFIFGYYAMGWYRQAPGKERELVAAINRSGSTYYADSVKGPFTISRDNAKNTVYLQMNSLKPEDTAVYYCKLRHYVGLSKGDYWGQGTQVTVSS; high polyreactivity
3. QVQLVESGGGLVQAGGSLRLSCAASGRTLLPNAMGWYRQAPGKERELVADISTSDGSTRYADSVKGRFTISRDNAKNTVYLQMNSLKPEDTAVYYCAAGSEYYSSGGVRFSFYYWGQGTQVTVSS; low polyreactivity
4. QGQLVESGGALVQAGGSLRLSCAPSGRTFHGYAMGGYRQAPGKERELVARINWSDGRTYYADSVKGRFTISRDNAKNTVYLQMNSLKPEDTAVYYCAADKTVSYGPAWYYYWGQGTQVTVSS; low polyreactivity
5. QVQLVESGGGLVQAGGSLRLSCAASGRILFGNMGWYRQAHGKERELVAAISRGTGSTDYADSVKGRFTISRDNAKNTVYLQMNSLKPEDTAVYYCYARSYRVHLHYWRKWEYDYWGQGTQVTVSS; high polyreactivity
6. QVQLVESGGGLVQAGGSLRLSCAASGSIFSSNAMGWYRQAPGKERELVAAITSGGSTTYADSVKGRFTISRDNAKNTVYLQMNSLKPEDTAVYYCAADPVYRYYHGWTYLDYDYWGQGTQVTVSS; low polyreactivity
7. QVQLVESGGGLVQAGGSLRLSCAASGRTFYYNAMGWYRQAPGKEREFVAAISYGGTTTYYADSVKGRFTISRDNAKNTVYLQMNSLKPEDTAVYYCAAGYTWRQSWYPFDYWGQGSQVTVSS; high polyreactivity
8. KVQLVESVGGLVQAGGSLRLSCAASGSIFRGNAIGWYRQAPGKERQLVAAISNSSGTTYYADSVKGRFTISRDNAKNTVYLQMNSLKPEDTAVYYCATRYYRGYVRGTHHVGGYYYRGQGTQVTVSS; low polyreactivity
9. QVQIVESGGGLVQAGGSLRLTCAASGGIFARYTMGWYRQAPGKERELVATITSGGGTNYADSVKGRFTISRDNAKNTVYLQMISLKPEDTAVYYCAASPRAVSYGPDDRQQYDYWGQGSQVTVSS; low polyreactivity
10. QVQLVESGGGLVQAGGRLRFSCAASGFIFRYYAMGCYRQAPGKERELVAAIDYSGGSTNYADSVKGRFTISRDNAKNTVYLQMNSLKPEETAVYYCNAEYTWHRGYDYWGQGTLVTVSS; low polyreactivity
11. QVQLVESGGGLVQAGGSLRLSCAASGSTFNINVMGWYRQAPGKERELVASISTGDITYYADSVKGRFTISRDNAKNTVYLQMNSLKPEDTAVYYCAAESYTGKYSWVWKWYDYWGQGTQVTVSS; low polyreactivity

Values from the nanobody polyreactivity screen of Harvey et al. (2022)
